Would you mind telling me the reported gMFI (fold increase over isotype) of each entry?
Target: T1, human CD112R expressed on Jurkat cells (human, UniProt Q6DKI7 1-326)
T1 construct: whole, on cells; Used for both Jurkat-CD112R OE cells and wild type Jurkat cells; which cells is said under assay; also called PVRIG; Jurkat-CD112R OE
T1 sequence (looked up): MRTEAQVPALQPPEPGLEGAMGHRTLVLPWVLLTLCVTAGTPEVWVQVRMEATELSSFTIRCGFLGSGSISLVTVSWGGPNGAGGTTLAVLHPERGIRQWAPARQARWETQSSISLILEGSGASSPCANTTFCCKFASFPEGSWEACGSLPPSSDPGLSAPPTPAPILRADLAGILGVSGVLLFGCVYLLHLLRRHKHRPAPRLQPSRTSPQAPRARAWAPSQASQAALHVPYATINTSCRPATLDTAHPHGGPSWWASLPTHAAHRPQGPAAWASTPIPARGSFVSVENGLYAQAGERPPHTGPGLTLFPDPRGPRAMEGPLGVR
Assay: flow cytometry, Jurkat cells over-expressing human CD112R, 0.63 ug/mL antibody

The binder identified as Antibody 15 (antibody, V domains shown, Purified as IgG; compared with an IgG1 isotype control and detected with anti-human IgG Fc; also called antibody clone number 15; clone 15) VH: EVQLVESGGGLVQPGRSLRLSCTASGFTFGDVAMSWFRQAPGKGLEWVGYIGSKAYGGETEYTASVKGRFTISRDGSKSIAYLQMNSLKTEDTAVYYCARAGHSYGSIASNWFDPWGQGTLVTVSS VL: DIQMTQSPSSLSASVGDRVTITCRASQSISSYLNWYQQKPGKAPKLLIYGASSLQSGVPSRFSGSGSGTDFTLTISSLQPEDFATYYCQQGFYTPWTFGGGTKVEIK registered its gMFI (fold increase over isotype) at 53.2 fold increase over isotype

The binder identified as Antibody 34 (antibody, V domains shown, Purified as IgG; compared with an IgG1 isotype control and detected with anti-human IgG Fc; also called antibody clone number 34; clone 34) VH: QVQLVQSGAEVKKPGSSVKVSCKASGGTFSSAAISWVRQAPGQGLEWMGGIFPISGHANYAQKFQGRVTITADESTSTAYMELSSLRSEDTAVYYCARDTGRGYTRHFWFDPWGQGTLVTVSS VL: DIQMTQSPSSLSASVGDRVTITCRASQSISSYLNWYQQKPGKAPKLLIYAASSLQSGVPSRFSGSGSGTDFTLTISSLQPEDFATYYCQQSDILYTFGGGTKVEIK registered its gMFI (fold increase over isotype) at 33.8 fold increase over isotype
